Lab note: IC50 readings collected with UniProt P23975 for the following compounds.
Sequence (P23975 whole entry): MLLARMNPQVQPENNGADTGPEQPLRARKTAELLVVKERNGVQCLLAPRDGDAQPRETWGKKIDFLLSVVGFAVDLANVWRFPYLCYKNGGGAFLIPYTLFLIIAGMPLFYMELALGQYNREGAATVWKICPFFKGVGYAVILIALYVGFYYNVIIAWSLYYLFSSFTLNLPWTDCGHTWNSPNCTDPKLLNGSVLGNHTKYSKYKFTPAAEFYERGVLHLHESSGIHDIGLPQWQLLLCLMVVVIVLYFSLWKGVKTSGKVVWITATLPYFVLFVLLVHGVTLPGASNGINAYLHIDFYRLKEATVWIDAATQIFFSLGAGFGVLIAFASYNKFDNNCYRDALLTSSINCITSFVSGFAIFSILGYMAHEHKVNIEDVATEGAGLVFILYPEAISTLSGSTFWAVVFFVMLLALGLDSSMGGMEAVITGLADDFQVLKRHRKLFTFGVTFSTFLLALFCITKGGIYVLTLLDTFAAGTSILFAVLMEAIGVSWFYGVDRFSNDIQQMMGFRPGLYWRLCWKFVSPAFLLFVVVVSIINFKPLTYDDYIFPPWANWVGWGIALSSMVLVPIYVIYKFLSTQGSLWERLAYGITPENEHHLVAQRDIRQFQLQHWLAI
assay.endpoint: IC50 (nM)

compound="CC1(C)C(CN)C1(C(=O)N1CCc2ccccc21)c1ccccc1 (racemic)" system_tested="UniProt P23975" assay_endpoint=IC50 inequality_operator=> obs_value=10000
compound="CCN(CC)C(=O)C1(c2ccccc2)CC1(C)CN (racemic)" system_tested="UniProt P23975" assay_endpoint=IC50 inequality_operator=> obs_value=10000
compound="NCC1C(c2ccccc2)C1(C(=O)N1CCc2ccccc21)c1ccccc1 (racemic)" system_tested="UniProt P23975" assay_endpoint=IC50 inequality_operator=> obs_value=10000
compound=C=CCN(CC(=C)F)C(=O)[C@@]1(c2ccc3c(c2)OCCO3)C[C@H]1CN system_tested="UniProt P23975" assay_endpoint=IC50 inequality_operator== obs_value=3.2
compound=C=CCN(CCC)C(=O)[C@@]1(c2ccc3c(c2)CCO3)C[C@H]1CN system_tested="UniProt P23975" assay_endpoint=IC50 inequality_operator== obs_value=21
compound="CCN(CC)C(=O)C1(c2ccccc2)C(CN)C1c1ccccc1 (racemic)" system_tested="UniProt P23975" assay_endpoint=IC50 inequality_operator=> obs_value=10000
compound="NC[C@@H]1C[C@@]1(C(=O)C1NCc2ccccc21)c1ccc2c(c1)OCO2 (stereo not given in full)" system_tested="UniProt P23975" assay_endpoint=IC50 inequality_operator== obs_value=20
compound=NC[C@@H]1C[C@@]1(C(=O)N1CCOc2ccccc21)c1ccc2c(c1)OCO2 system_tested="UniProt P23975" assay_endpoint=IC50 inequality_operator== obs_value=5.8
compound=C#CCN(CC)C(=O)[C@@]1(c2ccc3c(c2)OCCO3)C[C@H]1CN system_tested="UniProt P23975" assay_endpoint=IC50 inequality_operator== obs_value=5.9
compound=C#CCN(CC1CC1)C(=O)[C@@]1(c2ccc3c(c2)OCCO3)C[C@H]1CN system_tested="UniProt P23975" assay_endpoint=IC50 inequality_operator== obs_value=3.9

###

system.tested: Sodium-dependent serotonin transporter (Homo sapiens)
Sequence (P31645 whole entry): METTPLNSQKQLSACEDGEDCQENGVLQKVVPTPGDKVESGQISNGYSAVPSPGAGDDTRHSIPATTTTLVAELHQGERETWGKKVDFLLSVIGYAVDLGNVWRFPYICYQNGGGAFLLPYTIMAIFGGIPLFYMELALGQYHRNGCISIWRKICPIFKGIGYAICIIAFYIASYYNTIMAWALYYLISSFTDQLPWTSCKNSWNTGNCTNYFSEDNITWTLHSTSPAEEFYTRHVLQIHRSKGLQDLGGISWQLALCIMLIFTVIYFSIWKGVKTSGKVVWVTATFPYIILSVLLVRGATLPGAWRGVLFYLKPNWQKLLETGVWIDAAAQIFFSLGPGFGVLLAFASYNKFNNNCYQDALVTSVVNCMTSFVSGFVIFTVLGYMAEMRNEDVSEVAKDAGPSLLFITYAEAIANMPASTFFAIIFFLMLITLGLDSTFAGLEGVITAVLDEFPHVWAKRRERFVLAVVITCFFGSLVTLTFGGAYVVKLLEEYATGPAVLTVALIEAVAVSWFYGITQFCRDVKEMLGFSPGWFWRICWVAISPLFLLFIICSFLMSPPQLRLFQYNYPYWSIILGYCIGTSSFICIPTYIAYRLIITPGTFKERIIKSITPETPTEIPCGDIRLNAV
pIC50: −log10 of the molar value.
Listing of entries alongside the reported pIC50.
assay.endpoint: pIC50

molecule="C=CCN(CC)C(=O)C1(c2ccccc2)C(CN)C1(C)C (racemic)" assay_endpoint=pIC50 obs_value="< 5.00"
molecule="CC1(C)C(CN)C1(C(=O)N1CCc2ccccc21)c1ccccc1 (racemic)" assay_endpoint=pIC50 obs_value="< 5.00"
molecule="CCN(CC)C(=O)C1(c2ccccc2)C(CN)C1(C)C (racemic)" assay_endpoint=pIC50 obs_value="< 5.00"
